Every entry's value here was drawn from patent US9181259B2.

- ASSAY EXPLANATION: Hepatic intrinsic clearance following incubation in human liver microsomes
- Assay type: in vitro ADME
- STATED CONDITIONS: NADPH regenerating system, 0-30 min, 37 °C
VALUE TYPE: Human in vitro Clint (mL/min/g liver)

Cc1ccccc1C1C2CC(CO)C(=O)N2CCN1C(=O)N(C)[C@H](C)c1cc(C(F)(F)F)cc(C(F)(F)F)c1 (single isomer, unassigned) [Compound 56]    0.34
Cc1ccccc1[C@H]1[C@@H]2CC(CO)(CO)C(=O)N2CCN1C(=O)N(C)[C@H](C)c1cc(C(F)(F)F)cc(C(F)(F)F)c1 [Compound 104]    3.1
Cc1ccccc1C1C2CC(CO)CN2CCN1C(=O)N(C)Cc1cc(C(F)(F)F)cc(C(F)(F)F)c1 (single isomer, unassigned) [Compound 49]    1.9

P. Cc1ccccc1[C@H]1[C@@H]2CCC(=O)N2CCN1C(=O)N(C)[C@H](C)c1cc(C(C)C)cc(C(F)(F)F)c1 [Compound 112]
Q. Cc1ccccc1[C@H]1[C@@H]2CC(CO)(CO)C(=O)N2CCN1C(=O)N(C)[C@H](C)c1cc(Cl)cc(C(F)(F)F)c1 [Compound 108]
R. Cc1ccccc1[C@H]1[C@@H]2CC3(CCOCC3)C(=O)N2CCN1C(=O)N(C)[C@H](C)c1cc(C(F)(F)F)cc(C(F)(F)F)c1 [Compound 100]
**Q:** Let's sort these by Human in vitro Clint (mL/min/g liver), smallest first. Go ahead? Provide the ranking by listing each label in its place in the requested order.
**A:** R, Q, P
(R: 3.0 mL/min/g liver, Q: 4.3 mL/min/g liver, P: 51 mL/min/g liver)

###

- SYSTEM UNDER TEST: NK1 receptor (Homo sapiens, UniProt P25103)
- Construct: Measurement of NK1 Receptor Mediated Intracellular [Ca^2+]; Mobilization in U251 MG Cells Using FLIPR; endogenous in cells; host or cells: U251 MG cells
- Sequence (P25103 whole entry): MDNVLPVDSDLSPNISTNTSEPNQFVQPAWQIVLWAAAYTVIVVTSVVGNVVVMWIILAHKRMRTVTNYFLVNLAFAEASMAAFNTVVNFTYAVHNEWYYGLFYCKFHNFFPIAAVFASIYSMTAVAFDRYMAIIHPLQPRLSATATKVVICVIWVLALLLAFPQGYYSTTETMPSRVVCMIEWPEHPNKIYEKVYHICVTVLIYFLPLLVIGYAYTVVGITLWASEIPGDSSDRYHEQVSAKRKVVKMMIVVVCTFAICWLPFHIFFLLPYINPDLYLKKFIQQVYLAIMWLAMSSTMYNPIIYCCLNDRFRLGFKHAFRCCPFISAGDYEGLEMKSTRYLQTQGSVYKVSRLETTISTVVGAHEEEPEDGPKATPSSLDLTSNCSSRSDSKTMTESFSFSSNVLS
- ASSAY EXPLANATION: NK1 receptor mediated intracellular [Ca2+] mobilization in U251 MG cells using FLIPR
- Assay type: cell-based
- STATED CONDITIONS: antagonist potency against Substance P (EC80), normalized to 100 nM Aprepitant, read-out: U251MG (FLIPR pIC50) (converted)
VALUE TYPE: IC50 (nM)

Cc1ccccc1C1C2CC(CCO)(CCO)CN2CCN1C(=O)N(C)[C@H](C)c1cc(C(F)(F)F)cc(C(F)(F)F)c1 (single isomer, unassigned) [Compound 59]    60.3

a. Cc1ccccc1C1C2CC(CN3CCCC3)C(=O)N2CCN1C(=O)N(C)Cc1cc(C(F)(F)F)cc(C(F)(F)F)c1 (single isomer, unassigned) [Compound 31]
b. Cc1ccccc1[C@H]1[C@@H]2CC(CCO)(CCO)C(=O)N2CCN1C(=O)N(C)Cc1cc(Cl)cc(C(F)(F)F)c1
c. Cc1ccccc1C1C2CC(C)(C(=O)O)C(=O)N2CCN1C(=O)N(C)Cc1cc(C(F)(F)F)cc(C(F)(F)F)c1 (centres unmarked)
d. Cc1ccccc1C1C2CC(CCO)(CCO)CN2CCN1C(=O)N(C)Cc1cc(C(F)(F)F)cc(C(F)(F)F)c1 (single isomer, unassigned) [Compound 65]
**Q:** Order the records so the highest IC50 appears first and the lowest last. Put the labels in the requested order and write them down.
**A:** c, d, a, b

###

- SYSTEM UNDER TEST: NK1 receptor (Homo sapiens)
- Construct: Measurement of NK1 Receptor Mediated Intracellular [Ca^2+]; Mobilization in U251 MG Cells Using FLIPR; endogenous in cells; host or cells: U251 MG cells
- ASSAY EXPLANATION: NK1 receptor mediated intracellular [Ca2+] mobilization in U251 MG cells using FLIPR
- Assay type: cell-based
- STATED CONDITIONS: antagonist potency against Substance P (EC80), normalized to 100 nM Aprepitant, read-out: U251MG (FLIPR pIC50) (converted)
VALUE TYPE: IC50 (nM)

Previously resolved entries follow.
Cc1ccccc1[C@H]1[C@@H]2CC(CCO)(CCO)C(=O)N2CCN1C(=O)N(C)[C@H](C)c1cc(C(C)C)cc(C(F)(F)F)c1 [Compound 113]    0.0316
Cc1ccccc1C1C2CC(CN3CCCC3)C(=O)N2CCN1C(=O)N(C)Cc1cc(C(F)(F)F)cc(C(F)(F)F)c1 (single isomer, unassigned) [Compound 30]    0.38
Cc1ccccc1[C@H]1[C@@H]2CCC(=O)N2CCN1C(=O)N(C)[C@H](C)c1cc(C(F)(F)F)cc(C(F)(F)F)c1 (single isomer, unassigned) [Compound 9]    0.0347
Cc1cc([C@H](C)N(C)C(=O)N2CCN3C(=O)C(CCO)(CCO)C[C@H]3[C@@H]2c2ccccc2C)cc(C(F)(F)F)c1 [Compound 84]    0.0631
Cc1ccccc1C1C2CC(CO)C(=O)N2CCN1C(=O)N(C)Cc1cc(C(F)(F)F)cc(C(F)(F)F)c1 (single isomer, unassigned) [Compound 20]    1.66
Cc1ccccc1C1C2CC(CCO)C(=O)N2CCN1C(=O)N(C)C(CCO)c1cc(C(F)(F)F)cc(C(F)(F)F)c1 (racemic) [Compound 33]    0.158

I. CC(=O)N1CCN(CC2CC3C(c4ccccc4C)N(C(=O)N(C)Cc4cc(C(F)(F)F)cc(C(F)(F)F)c4)CCN3C2=O)CC1 (centres unmarked) [Compound 37]
II. Cc1ccccc1C1C2CC(CO)CN2CCN1C(=O)N(C)[C@H](C)c1cc(C(F)(F)F)cc(C(F)(F)F)c1 (single isomer, unassigned) [Compound 69]
**Q:** // task: argmin of IC50 over [ I , II ] Bench note: the answer is the label of the chosen record.
**A:** II

A. Cc1ccccc1C1C2CCC(=O)N2CCN1C(=O)N(C)Cc1cc(C(F)(F)F)cc(C(F)(F)F)c1 (racemic) [Compound 16]
B. Cc1ccccc1C1C2CC(CCO)(CCO)C(=O)N2CCN1C(=O)N(C)Cc1cc(C(F)(F)F)cc(C(F)(F)F)c1 (single isomer, unassigned) [Compound 43]
**Q:** Field: lower recorded IC50 (choose A or B ) Give the label under which the chosen entry appears.
**A:** A

a. Cc1ccccc1C1C2CC(CO)C(=O)N2CCN1C(=O)N(C)Cc1cc(C(F)(F)F)cc(C(F)(F)F)c1 (single isomer, unassigned) [Compound 19]
b. Cc1ccccc1[C@H]1[C@@H]2CC(CCO)(CCO)C(=O)N2CCN1C(=O)N(C)[C@H](C)c1cc(F)cc(C(F)(F)F)c1 [Compound 93]
c. Cc1ccccc1C1C2CCCN2CCN1C(=O)N(C)Cc1cc(C(F)(F)F)cc(C(F)(F)F)c1 (racemic) [Compound 24]
d. Cc1ccccc1C1C2CC(CCO)(CCO)C(=O)N2CCN1C(=O)N(C)[C@H](C)c1cc(C(F)(F)F)cc(C(F)(F)F)c1 (single isomer, unassigned) [Compound 53]
e. Cc1ccccc1C1C2CC(CO)CN2CCN1C(=O)N(C)Cc1cc(C(F)(F)F)cc(C(F)(F)F)c1 (single isomer, unassigned) [Compound 49]
**Q:** Rank entries according to their IC50, from the largest number down. I'd appreciate it if you listed the labels in the requested order.
**A:** a, d, c, e, b

A. COC(=O)C1(C)CC2C(c3ccccc3C)N(C(=O)N(C)Cc3cc(C(F)(F)F)cc(C(F)(F)F)c3)CCN2C1=O (single isomer, unassigned) [Compound 14]
B. Cc1ccccc1C1C2CC(CCO)(CCO)C(=O)N2CCN1C(=O)N(C)[C@H](C)c1cc(C(F)(F)F)cc(C(F)(F)F)c1 (single isomer, unassigned) [Compound 54]
**Q:** // pick larger IC50 from pair: A vs B Record your answer as the label of the chosen record.
**A:** B

###

- SYSTEM UNDER TEST: NK1 receptor (Homo sapiens, UniProt P25103)
- Construct: Measurement of NK1 Receptor Mediated Intracellular [Ca^2+]; Mobilization in U251 MG Cells Using FLIPR; endogenous in cells; host or cells: U251 MG cells
- ASSAY EXPLANATION: NK1 receptor mediated intracellular [Ca2+] mobilization in U251 MG cells using FLIPR
- Type: cell-based
- STATED CONDITIONS: antagonist potency against Substance P (EC80), normalized to 100 nM Aprepitant, read-out: U251MG (FLIPR pIC50) (converted)
VALUE TYPE: IC50 (pM)

Cc1ccccc1[C@H]1[C@@H]2CC(CCO)(CCO)C(=O)N2CCN1C(=O)N(C)[C@@H](C)c1cc(Cl)cc(C(F)(F)F)c1    39.8
Cc1ccccc1[C@H]1[C@@H]2CC(CCO)(CCO)C(=O)N2CCN1C(=O)N(C)[C@@H](CO)c1cc(C(F)(F)F)cc(C(F)(F)F)c1    204
Cc1ccccc1C1C2CC(CO)C(=O)N2CCN1C(=O)N(C)Cc1cc(C(F)(F)F)cc(C(F)(F)F)c1 (single isomer, unassigned) [Compound 23]    77.6

1. Cc1cc([C@@H](C)N(C)C(=O)N2CCN3C(=O)C(CO)(CO)C[C@H]3[C@@H]2c2ccccc2C)cc(C(F)(F)F)c1
2. Cc1ccccc1C1C2CC(CO)C(=O)N2CCN1C(=O)N(C)Cc1cc(C(F)(F)F)cc(C(F)(F)F)c1 (single isomer, unassigned) [Compound 22]
3. Cc1ccccc1[C@H]1[C@@H]2CC(CCO)(CCO)C(=O)N2CCN1C(=O)N(C)Cc1cc(F)cc(C(F)(F)F)c1
**Q:** Provide the items ranked by increasing IC50. Give the order by naming the labels one after another as requested.
**A:** 2, 1, 3
